Tested on: KM20L2 colon
Experiment: NCI tumour cell line growth inhibition, 48 h
measuredProperty: TGI

# example entries with known answers
                                   compound  measuredproperty  observedresult
0         COC(=O)c1cccc2c3ccccc3c3ccccc3c12               TGI        > 100 µM
1  O=C(O)[C@@H]1OCCOCCO[C@@H](C(=O)O)[C@H](C(=O)O)OCCOCCO[C@H]1C(=O)O               TGI        > 100 µM
2  COc1cc2c(oc(=O)c3c4occc4cc(OC)c23)c2cccc(OCc3ccccc3)c12               TGI        > 100 µM
3  O=C(Cc1nc2sc3c(c2c(=O)[nH]1)CCCC3)Nc1ccccc1               TGI        > 100 µM
4  O=c1[nH]c2cc([N+](=O)[O-])ccc2nc1/C(=N/Nc1ccccc1)C(O)c1ccco1 (stereo unspecified)               TGI        > 100 µM
5  COc1cccc2c1C1(O)C2CCCCCCCCCC12OCCCO2 (stereo unspecified)               TGI        > 100 µM
6  CC1(C)CCCC2(C)C3C(O)CC2(C)C(O)C31 (stereo unspecified)               TGI        > 100 µM
7  [N-]=[N+]=NC1(c2ccccc2)C(=O)C(Cl)=C(c2ccccc2)N(c2ccccc2)C1=O (stereo unspecified)               TGI        > 100 µM

Hi there! I need TGI for each item below, if you can.
1. c1ccc(CN2CCc3[nH]c4ccccc4c3C2)cc1
2. Cc1cccc(C)c1NC(=O)CCc1nnc2s/c(=C\c3ccc(N(C)C)cc3)c(=O)n12
3. COC(=O)CCC(=O)N1C/C(=C\c2ccccc2)C(=O)/C(=C/c2ccccc2)C1

["26.3 µM", "> 100 µM", "3.82 µM"]

---

Test system: HOP-92 NSCLC
Test: NCI tumour cell line growth inhibition, 48 h
measuredProperty: TGI (µM)
One number for each entry, in µM.

# example entries with known answers
compound	measuredTarget	observedResult
COC1CC(OC2CCC3(C)C(=CCC4C3C(OC(C)=O)C(OC(=O)CC(C)C)C3(C)C(C(C)=O)CCC43O)C2)OC(C)C1OC1CC(OC)C(OC2CC(OC)C(OC3OC(C)C(O)C(OC)C3O)C(C)O2)C(C)O1 (stereo not drawn)	HOP-92 NSCLC	57.6
N#Cc1cnc2cc(OC[C@@H](O)CO)c(NC(=O)C3CCCC3)cc2c1Nc1ccc(OCc2cccc(F)c2)c(Cl)c1	HOP-92 NSCLC	2.48
c1cc(-c2ccc(-c3nc4ccc(C5=NCCN5)cc4s3)s2)ccc1C1=NCCN1	HOP-92 NSCLC	1.08

Hi there! I need TGI for each item below, if you can.
1. O=C(CC(O)(C(F)(F)F)C(F)(F)Cl)CC(O)(C(F)(F)F)C(F)(F)Cl (stereo not drawn)
2. CC(C)(C)c1cc2c(c(C(C)(C)C)c1O)CC(=O)O2
3. COC(=O)c1c(C)[nH]c2c1C(=O)C(=O)c1nc(C)c(C)nc1-2
4. O=C(Nn1c(-c2cccs2)nc2ccc(I)cc2c1=O)c1ccccc1
5. Cc1coc2c1C(=O)C(=O)c1ccccc1-2

[4.57, 17.9, 24.8, 51.7, 1.28]
